Biological target: His-BIR3 (241-356, XIAP) (Homo sapiens, UniProt P98170)
Construct: additions of His-BIR3 (241-356, XIAP), fluorescein labeled SMAC peptide
Sequence (P98170 241-356): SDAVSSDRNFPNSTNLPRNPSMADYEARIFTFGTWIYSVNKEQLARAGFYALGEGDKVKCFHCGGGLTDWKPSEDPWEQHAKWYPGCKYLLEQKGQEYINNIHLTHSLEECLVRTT
Experiment: XIAP-BIR3/SMAC Homogeneous Time Resolved Fluorescence (HTRF) Assay
Settings: fluorescein labeled SMAC peptide
So basically, if IC50 comes in under 20 nM it's TRUE, and if it's 20 nM or more it's FALSE.

>>> group_label("CN[C@@H](C)C(=O)N[C@@H](CC1CCCCC1)C(=O)N1C[C@@H]2C[C@H]1C(=O)N[C@@H](Cc1ccc3ccccc3c1)C(=O)N[C@H](C(=O)O)Cc1ccc(cc1)C(=O)N[C@H]1C[C@@H](C(=O)N[C@@H](Cc3ccc4ccccc4c3)C(=O)N[C@H](C(=O)O)Cc3ccc(cc3)OC/C=C/CO2)N(C(=O)[C@@H](NC(=O)[C@H](C)NC)C(C)(C)C)C1 [Example 69]")
"TRUE"
>>> group_label("CN[C@@H](C)C(=O)N[C@@H](Cc1ccccc1)C(=O)N1C[C@@H]2C[C@H]1C(=O)N[C@@H](Cc1ccc3ccccc3c1)C(=O)N[C@H](C(=O)O)Cc1ccc(cc1)C(=O)N[C@H]1C[C@@H](C(=O)N[C@@H](Cc3ccc4ccccc4c3)C(=O)N[C@H](C(=O)O)Cc3ccc(cc3)OC/C=C/CO2)N(C(=O)[C@@H](NC(=O)[C@H](C)NC)C(C)(C)C)C1 [Example 70]")
"TRUE"
>>> group_label("CN[C@@H](C)C(=O)N[C@H](C(=O)N1C[C@@H]2C[C@H]1C(=O)N[C@@H](Cc1ccc3ccccc3c1)C(=O)N[C@H](C(=O)O)Cc1ccc(cc1)OCc1cn(nn1)[C@H]1C[C@@H](C(=O)N[C@@H](Cc3ccc4ccccc4c3)C(=O)N[C@H](c3nnn[nH]3)Cc3ccc(cc3)OCCCCO2)N(C(=O)[C@@H](NC(=O)[C@H](C)NC)C(C)(C)C)C1)C(C)(C)C [Example 128]")
"TRUE"
>>> group_label("CN[C@@H](C)C(=O)N[C@H](C(=O)N1C[C@@H]2C[C@H]1C(=O)N[C@@H](Cc1ccc3ccccc3c1)C(=O)N[C@H](C(=O)O)Cc1ccc(cc1)C(=O)N[C@H]1C[C@@H](C(=O)N[C@@H](Cc3ccc4ccccc4c3)C(=O)N[C@H](C(=O)O)Cc3ccc(cc3)C(=O)N2)N(C(=O)[C@@H](NC(=O)[C@H](C)NC)C(C)(C)C)C1)C(C)(C)C [Example 85]")
"TRUE"
>>> group_label("CN[C@@H](C)C(=O)N[C@H](C(=O)N1C[C@@H]2C[C@H]1C(=O)N[C@@H](Cc1ccc3ccccc3c1)C(=O)N[C@H](C(=O)O)Cc1ccc(cc1)OC/C=C/CO[C@H]1C[C@@H](C(=O)N[C@@H](Cc3cccc(-c4cccnc4)c3)C(=O)N[C@H](C(=O)NS(=O)(=O)C3CC3)Cc3ccc(cc3)OCc3cn2nn3)N(C(=O)[C@@H](NC(=O)[C@H](C)NC)C(C)(C)C)C1)C(C)(C)C [Example 116]")
"FALSE"
